A collection of compounds and their measured Ki
target-entity: Human α2δ-1 subunit of Cav2.2 calcium channel (Homo sapiens (Human), UniProt P54289)
Sequence (P54289 25-1103): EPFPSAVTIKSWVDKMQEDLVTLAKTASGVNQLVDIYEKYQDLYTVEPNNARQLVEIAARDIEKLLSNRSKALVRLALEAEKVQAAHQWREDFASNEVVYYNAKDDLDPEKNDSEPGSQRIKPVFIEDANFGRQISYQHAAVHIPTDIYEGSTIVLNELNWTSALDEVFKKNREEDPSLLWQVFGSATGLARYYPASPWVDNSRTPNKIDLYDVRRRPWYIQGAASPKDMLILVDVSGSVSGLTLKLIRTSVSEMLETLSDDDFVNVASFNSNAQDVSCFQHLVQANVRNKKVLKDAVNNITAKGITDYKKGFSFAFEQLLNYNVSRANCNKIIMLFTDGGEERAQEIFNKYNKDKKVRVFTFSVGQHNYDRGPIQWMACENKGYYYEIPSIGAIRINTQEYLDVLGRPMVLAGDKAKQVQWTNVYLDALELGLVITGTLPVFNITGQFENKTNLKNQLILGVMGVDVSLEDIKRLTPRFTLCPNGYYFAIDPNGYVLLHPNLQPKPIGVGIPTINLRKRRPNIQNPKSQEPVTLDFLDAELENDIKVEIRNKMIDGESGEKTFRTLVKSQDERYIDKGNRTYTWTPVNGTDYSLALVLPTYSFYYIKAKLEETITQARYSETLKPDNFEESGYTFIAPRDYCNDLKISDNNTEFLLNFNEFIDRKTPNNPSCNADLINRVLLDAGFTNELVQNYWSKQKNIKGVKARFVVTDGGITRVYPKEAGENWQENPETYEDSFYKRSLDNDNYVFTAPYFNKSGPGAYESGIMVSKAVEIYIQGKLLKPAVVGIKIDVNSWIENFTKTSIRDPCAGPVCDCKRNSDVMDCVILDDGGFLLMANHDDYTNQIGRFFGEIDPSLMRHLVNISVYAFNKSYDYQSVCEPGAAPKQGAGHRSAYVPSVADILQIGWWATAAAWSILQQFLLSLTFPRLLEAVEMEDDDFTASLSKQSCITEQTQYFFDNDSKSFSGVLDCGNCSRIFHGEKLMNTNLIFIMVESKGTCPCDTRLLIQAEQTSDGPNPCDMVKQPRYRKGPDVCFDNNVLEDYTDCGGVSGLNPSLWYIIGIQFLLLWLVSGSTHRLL
protocol-text: Binding Assay to Human α2δ-1 Subunit of Cav2.2 Calcium Channel
applied-conditions: Table 1; human α2δ-1 enriched membranes, 15 nM [3H]-Gabapentin; read-out: Ki(nM) alpha2delta Hum

compound	Ki
CCNc1ccc2c(n1)N(C)CCN(c1cccc(COC(CCNC)c3ccccc3)c1)C2=O (centres unmarked)	500 to 3000 nM
CNCCC(OCc1cccc(N2CCN(C)c3ccccc3C2)c1)c1ccccc1 (centres unmarked)	500 to 3000 nM
CNCC[C@H](Oc1cccc(N2CCN(C)c3nc(N)ccc3C2=O)c1)c1cccs1	100 to 500 nM

Summary for this compound, CNCCC(OCc1cccc(N2CCN(C)c3cnccc3C2=O)c1)c1ccccc1 (centres unmarked) : Ki is 500 to 3000 nM

Ki reading for CNCCC(Oc1cccc(CN2CCN(C)c3ccccc3C2)c1)c1cccs1 (centres unmarked) : 100 to 500 nM

compound CNCCC(Oc1cccc(C(=O)N2CCN(C)c3ccccc3C2)c1)c1cccs1 (centres unmarked) , Ki observed: 500 to 3000 nM

Form field Ki, entry CNCCC(Oc1cccc(N2CCN(C)c3cccnc3C2=O)c1)c1cccs1 (centres unmarked) : 500 to 3000 nM

Kindly note the recorded Ki for CNCCC(OCc1cccc(N2CCCN(C)CC2=O)c1)c1ccccc1 (centres unmarked) , which is 500 to 3000 nM

###

target-entity: Human α2δ-1 subunit of Cav2.2 calcium channel (Homo sapiens (Human), UniProt P54289)
protocol-text: Binding Assay to Human α2δ-1 Subunit of Cav2.2 Calcium Channel
applied-conditions: Table 2, dual compounds; human α2δ-1 enriched membranes, 15 nM [3H]-Gabapentin; read-out: Ki(nM) alpha2delta Hum
measured-property: Ki

CNCC[C@H](Oc1ccc(CN2CCN(C)c3cnc(OC)cc3C2=O)c(F)c1)c1ccccc1 < 100 nM

// Ki lookup, compound = CNCC[C@H](Oc1ccc(CN2CCN(C)c3nc(C)ccc3C2=O)cc1)c1cccs1 , result: 100 to 500 nM

// field: Ki; key: CNCC[C@H](Oc1cccc(N2CCN(C(C)C)CCC2=O)c1)c1cccs1 ; value = 500 to 3000 nM

Short answer for CNCC[C@H](Oc1ccc(CN2CCN(C)c3nc(N)ccc3C2=O)c(F)c1)c1ccccc1 : Ki was 100 to 500 nM

###

target-entity: Human α2δ-1 subunit of Cav2.2 calcium channel (Homo sapiens (Human), UniProt P54289)
protocol-text: Binding Assay to Human α2δ-1 Subunit of Cav2.2 Calcium Channel
applied-conditions: Table 2, dual compounds; human α2δ-1 enriched membranes, 15 nM [3H]-Gabapentin; read-out: Ki(nM) alpha2delta Hum
measured-property: Ki

Sample answers from the record:
compound	Ki
CNCC[C@@H](Oc1ccc(CN2CCN(C)c3ncccc3C2=O)cc1)c1cccc(F)c1	500 to 3000 nM
CNCC[C@H](Oc1ccc(CN2CCN(C)c3nc(C(F)(F)F)ccc3C2=O)cc1)c1cccs1	100 to 500 nM
CNCC[C@H](Oc1ccc(CN2CCN(C)c3nc(N)ccc3C2=O)c(Cl)c1)c1ccccc1	< 100 nM
CNCC[C@H](Oc1ccc(CN2CCN(C)c3cnccc3C2=O)cc1)c1cccs1	100 to 500 nM
CNCCC(Oc1ccc(CN2CCN(C)c3nc(N)ccc3C2=O)c(F)c1)c1cccc(F)c1 (stereo not drawn)	< 100 nM
CCNc1ccc2c(n1)N(C)CCN(Cc1ccc(OC(CCNC)c3ccccc3)cc1)C2=O (stereo not drawn)	500 to 3000 nM
CNCCC(Oc1ccc(CN2CCN(C)c3ncccc3C2=O)c(F)c1)c1ccccc1F (stereo not drawn)	100 to 500 nM
CNCCC(OCc1cccc(N2CCN(C)c3ccccc3C2)c1)c1ccccc1 (stereo not drawn)	500 to 3000 nM

Value of measured Ki for the entry CNCCC(Oc1ccc(CN2CCN(C)c3ncccc3C2=O)c(F)c1)c1cccc(F)c1 (stereo not drawn) : < 100 nM

Noted for CNCC[C@H](Oc1ccc(CN2CCN(C)c3nc(OC)ccc3C2=O)c(F)c1)c1ccccc1 : its Ki reads 100 to 500 nM

Short answer for CNCCC(Oc1cccc(N2CCN(C)c3nc(C)ccc3C2=O)c1)c1ccsc1 (stereo not drawn) : Ki was 100 to 500 nM

// Ki lookup, compound = CNCC[C@H](Oc1ccc(CN2CCN(C)c3cccnc3C2=O)cc1)c1cccs1 , result: 500 to 3000 nM

###

Reported Ki values for the following compounds.
target-entity: Human α2δ-1 subunit of Cav2.2 calcium channel (Homo sapiens (Human), UniProt P54289)
protocol-text: Binding Assay to Human α2δ-1 Subunit of Cav2.2 Calcium Channel
applied-conditions: Table 1; human α2δ-1 enriched membranes, 15 nM [3H]-Gabapentin; read-out: Ki(nM) alpha2delta Hum

compound	target-entity	value-reported
CNCCC(Oc1cccc(N2CCN(C)c3cnccc3C2=O)c1)c1cccs1 (stereo not shown) [Example 73]	Human α2δ-1 subunit of Cav2.2 calcium channel (Homo sapiens (Human), UniProt P54289)	100 to 500 nM

The reported Human α2δ-1 subunit of Cav2.2 calcium channel (Homo sapiens (Human), UniProt P54289) Ki of CNCCC(Oc1cc(F)cc(N2CCN(C)c3ncccc3C2=O)c1)c1cccc(F)c1 (stereo not shown) [Example 121] is < 100 nM

###

Reported Ki values for the following molecules.
target-entity: Human norepinephrine transporter (NET) (Homo sapiens (Human))
Sequence (P23975 whole entry): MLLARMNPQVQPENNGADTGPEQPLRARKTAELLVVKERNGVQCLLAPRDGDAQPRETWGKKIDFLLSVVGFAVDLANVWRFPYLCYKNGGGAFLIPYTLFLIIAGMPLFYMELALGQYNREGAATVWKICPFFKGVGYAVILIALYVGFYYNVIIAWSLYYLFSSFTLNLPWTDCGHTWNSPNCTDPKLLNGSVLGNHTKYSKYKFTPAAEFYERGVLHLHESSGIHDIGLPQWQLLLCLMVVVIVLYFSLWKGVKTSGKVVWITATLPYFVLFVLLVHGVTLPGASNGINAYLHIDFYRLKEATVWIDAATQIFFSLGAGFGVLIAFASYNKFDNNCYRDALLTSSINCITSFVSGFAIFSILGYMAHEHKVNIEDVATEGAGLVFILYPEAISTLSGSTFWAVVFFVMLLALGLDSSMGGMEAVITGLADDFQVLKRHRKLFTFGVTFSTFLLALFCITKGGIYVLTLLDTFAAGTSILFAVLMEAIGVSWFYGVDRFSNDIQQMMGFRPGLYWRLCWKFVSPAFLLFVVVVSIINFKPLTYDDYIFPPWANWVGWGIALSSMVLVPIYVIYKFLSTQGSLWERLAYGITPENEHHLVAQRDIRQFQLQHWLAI
protocol-text: Binding Assay to Human Norepinephrine Transporter (NET)
applied-conditions: Table 2, dual compounds; human NET enriched membranes, 5 nM [3H]-Nisoxetin; read-out: Ki(nM) NET Hum

Recorded Ki, per entry:
molecule	Ki
CNCC[C@H](Oc1ccc(CN2CCCn3nccc3C2=O)cc1)c1cccs1	100 to 500 nM
CNCCC(Oc1cccc(N2CCN(C)c3nc(N(C)C)ccc3C2=O)c1)c1cccs1 (centres unmarked)	100 to 500 nM
CCNc1ccc2c(n1)N(C)CCN(Cc1ccc(OC(CCNC)c3ccccc3)cc1)C2=O (centres unmarked)	< 100 nM
CNCCC(Oc1ccc(CN2CCN(C)c3ncccc3C2=O)c(F)c1)c1ccccc1F (centres unmarked)	< 100 nM
CNCCC(Oc1ccc(CN2CCN(C)c3ncccc3C2=O)cc1)c1cccc(F)c1 (centres unmarked)	< 100 nM

# Ki (molecule: CNCC[C@H](Oc1ccc(CN2CCN(C)c3nc(C(F)(F)F)ccc3C2=O)cc1)c1cccs1 ) is 100 to 500 nM

Given item CNCC[C@H](Oc1ccc(CN2CCN(C)c3cccnc3C2=O)cc1)c1cccs1 , the value recorded as its Ki is 100 to 500 nM

// Ki value for CNCCC(Oc1ccc(CN2CCN(C)c3ncccc3C2=O)c(F)c1)c1cccc(F)c1 (centres unmarked) : < 100 nM

The reported value for CNCCC(Oc1cccc(N2CCN(C)c3nc(C)ccc3C2=O)c1)c1ccsc1 (centres unmarked) in terms of Ki is 100 to 500 nM

Form field Ki, entry CNCC[C@H](Oc1ccc(CN2CCCn3nccc3C2=O)c(F)c1)c1ccccc1 : < 100 nM

Notebook: CNCCC(OCc1cccc(N2CCN(C)c3ccccc3C2)c1)c1ccccc1 (centres unmarked) , Ki read as 500 to 1000 nM

Recorded Ki (molecule CNCC[C@H](Oc1ccc(CN2CCCn3nc(OC)cc3C2=O)c(C)c1)c1cccs1 ): < 100 nM

# molecule CNCC[C@H](Oc1ccc(CN2CCN(C)c3ncccc3C2=O)c(Cl)c1)c1cccs1 ; its Ki = < 100 nM

Documented Ki of CNCCC(Oc1ccc(CN2CCN(C)c3ncccc3C2=O)cc1)c1ccc(F)cc1 (centres unmarked) : < 100 nM

The molecule listed as CNCC[C@H](Oc1ccc(CN2CCN(C)c3nc(N)ccc3C2=O)c(Cl)c1)c1ccccc1 has a reported Ki of < 100 nM

The value of Ki measured for the molecule CNCC[C@H](Oc1ccc(CN2CCN(C)c3ncccc3C2=O)c(Cl)c1)c1cccc(F)c1 turned out to be < 100 nM

// Ki value for CNCC[C@H](Oc1ccc(CN2CCCn3nc(OC)cc3C2=O)c(F)c1)c1ccccc1 : < 100 nM

For CNCC[C@H](Oc1ccc(CN2CCN(C)c3ncccc3C2=O)c(F)c1)c1ccccc1 the molecule record lists Ki as < 100 nM

Recorded Ki (molecule CNCC[C@H](Oc1cccc(N2CCN(C(C)C)CCC2=O)c1)c1ccsc1 ): 100 to 500 nM

Reported Ki ( CNCC[C@H](Oc1ccc(CN2CCN(C)c3ncccc3C2=O)cc1)c1cccc(F)c1 ) = < 100 nM

###

Recorded Ki values for a group of compounds are listed next.
target-entity: Human α2δ-1 subunit of Cav2.2 calcium channel (Homo sapiens (Human), UniProt P54289)
protocol-text: Binding Assay to Human α2δ-1 Subunit of Cav2.2 Calcium Channel
applied-conditions: Table 1; human α2δ-1 enriched membranes, 15 nM [3H]-Gabapentin; read-out: Ki(nM) alpha2delta Hum

# annotated cases, reported Ki shown
compound	Ki
CNCC[C@H](Oc1ccc(CN2CCCn3cccc3C2=O)cc1)c1cccs1 [Example 105]	500 to 3000 nM
CNCC[C@H](Oc1ccc(CN2CCN(C)c3ncccc3C2=O)c(C2CC2)c1)c1cccs1 [Example 128]	100 to 500 nM
CNCC[C@H](Oc1ccc(CN2CCN(C)c3cnccc3C2=O)cc1)c1cccs1 [Example 96]	100 to 500 nM
CNCC[C@@H](Oc1ccc(CN2CCN(C)c3ncccc3C2=O)c(F)c1)c1cccc(F)c1 [Example 135]	500 to 3000 nM
CNCCC(Oc1cccc(N2CCN(C)c3ccccc3C2=O)c1)c1cccs1 (stereo not drawn) [Example 53]	500 to 3000 nM

Input CNCCC(Oc1cccc(N2CCN(C(C)C)CCC2=O)c1)c1ccsc1 (stereo not drawn) [Example 75] . Output Ki: 100 to 500 nM

Item: CNCCC(OCc1ccc(CN2CCN(C)c3ccccc3C2=O)cc1)c1ccccc1 (stereo not drawn) [Example 88] | Ki: > 3000 nM

CNCCC(Oc1cccc(C(=O)N2CCCN(C)CC2)c1)c1cccs1 (stereo not drawn) [Example 2] has a reported Ki of 500 to 3000 nM

# compound CNCC(OCc1ccc(N2CCN(C)c3ccccc3C2=O)cc1)c1ccccc1 (stereo not drawn) [Example 85] ; its Ki = > 3000 nM

Reference for the values: patent US11401270B2
